The origin of these recorded values is the nanobody polyreactivity screen of Harvey et al. (2022).

Test: yeast display, Sf9 membrane polyspecificity reagent, FACS + sequencing; frameworks hold sequencing errors
QUANTITY: polyreactivity (PSR sort gate)

>  <ORDERED_RESIDUES>
QVQLQESGGGLVQAGGSLRLSCAASGYISTFSSEMGWYRQAPGKERELVASIAPGCTTSYADSVKGRFTISRDNAKNTVYLQMNSLKPEDTAVYYCAVDFTVPASFGYWGQGTQVTVSS

>  <ENDPOINT_VALUE>
high polyreactivity

$$$$
>  <ORDERED_RESIDUES>
QVQLVESGGGLVQAGGSLRLSCAASGSTFYGYAMGWYRQAPGKERELVAAISSSGTRTYYADSVKGRFTISRDNAKNTVYLQMNSLKPEDTAVYYCNAYYYIPFEGRGYSKMDYWGQGTQVTVSS

>  <ENDPOINT_VALUE>
high polyreactivity

$$$$
>  <ORDERED_RESIDUES>
QVQLQESGGGLVQAGGSLRLSCAASGNISVTGFMGWYRQAPGKERELVASIGIGGTTYYADSVKGRFSISRDNAKNTVYLQMNSLKPEDTAVYYCAARYLYYAYSYWCQGTQVTVSS

>  <ENDPOINT_VALUE>
low polyreactivity

$$$$
>  <ORDERED_RESIDUES>
QVQLEESGGGLVQAGGSLRLSCAASGSIFSPNAMGWYRQAPGKERELVAAISSNGVSTYYADSVKGRFTISRDNAKNTVYLQMNSLKPEDTAVYYCAAVSIGPGEYDYWGQGTQVTVSS

>  <ENDPOINT_VALUE>
low polyreactivity

$$$$
>  <ORDERED_RESIDUES>
QVQLVESGGGLVQALGSLRLSCAASGSIFQRNALGWYRLAPGKERELVAAISRSGGSTYYADSVKGRFTISRDNAKNTVYCQMNSLQPEDTAVYYCAAVHFFWGYDYWGQGTQVTVSS

>  <ENDPOINT_VALUE>
high polyreactivity

$$$$

###

Assay: yeast display, Sf9 membrane polyspecificity reagent, FACS + sequencing; frameworks hold sequencing errors

>  <ORDERED_RESIDUES>
QVQLLESGGGLVQAGGSLRLSCAPSGSTIAWYAMGWYIHAPGKERELVAAITQSGGSTYYADSVKGRFTISRDNEKNTVYLLMIRLKPEDTAVYYCAAYPGYAKYRYDFWGPGTQVTVSS

>  <polyreactivity (PSR sort gate)>
high polyreactivity

$$$$
>  <ORDERED_RESIDUES>
QVQLVESGGGLVQAGGSLRLSCAASGFNFPYYAMGWYRQAPGKERALVAAIRISGGSTYYADSVKGRFTISRDNAKNTVYLQMNSLKPEDTAVYYCAADYRYRSRFYYWGQGTQVTVSS

>  <polyreactivity (PSR sort gate)>
low polyreactivity

$$$$
>  <ORDERED_RESIDUES>
QVQLVESGGGLVQAGGSLRLSCAASGNIFWWNAMGWYRQAPGKERELVAAITSDSTTYYADSVKGRFTISRDNAKNTVYLQMNSLKPEDTAVYYCNTVAYLRRFDKWGMNYWGQGTQVTVSS

>  <polyreactivity (PSR sort gate)>
low polyreactivity

$$$$
>  <ORDERED_RESIDUES>
QVQLVESGGGLVQAGGSLRLSCAASGSIFYEYDMGWYRQAPGKERELVAALDGSADSTYYADSVKGRFTISRDNAKNTVYLQMNSLKPEDTAVYYCNTRYFRWDTEYGYWGQGTQLTVSS

>  <polyreactivity (PSR sort gate)>
low polyreactivity

$$$$
>  <ORDERED_RESIDUES>
QVQLEESGGGLVQAGGSLRLICAASGRTFSGNTMGWYIQAPGKERELVAAITGRGGSTYYADSEKGRFTISRDNEKNTVYLQMNSLKPVDTAVYYCAALRYTFAGRFDYWGQGTQVTVSS

>  <polyreactivity (PSR sort gate)>
high polyreactivity

$$$$
>  <ORDERED_RESIDUES>
QFQLVETVGGLVQAGGSLRLSCAASGSIFPGYAMGWYRQAPGKERELVATITWSGGSTYYADSVKGRFTISRDNAKNTVYLQMYSLIPEDTAVYYFNADSNWYYQWNYYGLYDYWGKGTQVTVSS

>  <polyreactivity (PSR sort gate)>
low polyreactivity

$$$$
>  <ORDERED_RESIDUES>
QVQLVESGGGLVQAGGSLRLSCAASGRIFAGYPMGWYRQAPGKERELVATITRGGSTNYADSVKRPFTISRDNAKYTVYLQMNSLKPEDTAVYYCNADPGGRYPRRGYAHEGDYWGQGTQVTVSS

>  <polyreactivity (PSR sort gate)>
low polyreactivity

$$$$
>  <ORDERED_RESIDUES>
QVQLVESGGGLVQAGGSLRLRCAASGRIFRYYAMGWYRQAPGKARELVARITSSGSTYYADSVKGRFTISRDNAKNTVYLQMNSLKPEDTAVYYCAADWYRGGIVDSWGQGTQVTVSS

>  <polyreactivity (PSR sort gate)>
high polyreactivity

$$$$
>  <ORDERED_RESIDUES>
QVQLVESGGGLVQAGGSLRLSCAASGRIFRTYALGWYRQAPGKERELVAAINSGGTTYYADSVKGRFTISRDNAKNTVYLQLNSLKPEDTAVYYCNAEYYYAFLRLWYDYWGQGTQVTVSS

>  <polyreactivity (PSR sort gate)>
high polyreactivity

$$$$
>  <ORDERED_RESIDUES>
QVQLVESGGGLVQAGGSLRLSCAASGRTYSYNAMGWYRQEPGKERELVAGITYTGGRTYYADSVKGRFTISRDNAKNTVYLQMNSLKPEDTAVYYCAVGEYGHWLYRYEYWGQGTQVTVSS

>  <polyreactivity (PSR sort gate)>
high polyreactivity

$$$$
>  <ORDERED_RESIDUES>
QVQLVESGGGLVQAGGSLRLSCAASGSIFGFYAMGWYRQAPGKERELVASISSSGDSTYYADSVKGRFTISRDNAKNTVYLQMNSLKPEDTAVYYCAAVVYDIYGYEFDYWGQGTQVTVSS

>  <polyreactivity (PSR sort gate)>
low polyreactivity

$$$$
>  <ORDERED_RESIDUES>
QVQLVESGGGLVQAGGSLRLSFADSGLILNFYAKSSYRQAPGKERELVAAISWNAGSTYYADSVKGRFTISREKSMNTGYVQMKSLKPEDTAVYYCAVLPGRYDKTASHYDYWGQGTQVTVSS

>  <polyreactivity (PSR sort gate)>
low polyreactivity

$$$$
>  <ORDERED_RESIDUES>
QVQLVESGGGLVQAGGSLRLSCAASGRTFGSNAMGWYRQAPGKERELVAAITRRGGSTYYADSVKGRFTISRDNAMNTVYLQMNSLKPEDTAVYYCATDPVSTRGSDYWGQGTQVTVSS

>  <polyreactivity (PSR sort gate)>
low polyreactivity

$$$$
>  <ORDERED_RESIDUES>
QVQLVDSGGGLVQAGGSLRLSCAASGRIFGYNAMGWSRQAPGKERELVAAITSDARTNYADSVKGRFTISRDNAKNTVYLQMISLKPEDTAVYYCAARRYPPRMDYWGHGTQVTVSS

>  <polyreactivity (PSR sort gate)>
high polyreactivity

$$$$

###

Test: yeast display, Sf9 membrane polyspecificity reagent, FACS + sequencing; frameworks hold sequencing errors
QUANTITY: polyreactivity (PSR sort gate)

>  <ORDERED_RESIDUES>
QVHLVDSGGGLVQAGGRLRLSCPASVSTFYYYVKGWYRQPPGKERELVAAISSGCHTNYADSVKGRFTISRDNAKNTVYLQMNSLIPEDSAVYYCAAKPRRGTLLRYGYWGQGTQVTVSS

>  <ENDPOINT_VALUE>
high polyreactivity

$$$$
>  <ORDERED_RESIDUES>
QVQLVESGGGLVQAGGSLRLSCAASGSIFVYNAMGWYRQAPVKERELVAVITLRSGSTNYADSVKGRFTISRDNEKNTVYLQMNSLKPEDTAVYYCAADDTYHDYQRDTDDDYWGQGTQVTVSS

>  <ENDPOINT_VALUE>
low polyreactivity

$$$$
>  <ORDERED_RESIDUES>
QVQLVESGGGLVQAGGSLRLSCAASGFTFVRYAMGWYRQAPGKEREFVAAITWSGGGTYYADSVKGRFTISRDNAKNTVYLQMNSLKPEDTAVYYCAADRRAYGGGYWGQGTQVTVSS

>  <ENDPOINT_VALUE>
high polyreactivity

$$$$
>  <ORDERED_RESIDUES>
QDQLGESGGGLVQAGGSLRLSCAASGSIFETYVMGWYRQAPGKERELVAAINSGGSTNYADSVKGRFTISRDNAKNTVYLQMNSLKAEDTAVYYCNADWFTPAQPWYRYFIRYDYWGQGTQVTVSS

>  <ENDPOINT_VALUE>
low polyreactivity

$$$$
>  <ORDERED_RESIDUES>
QVQLVESGGGLVQAGGSLRLSCAASGITFYEYAMGCYRQAPGTERDFVAAIDHGDSSTYYADSVKGRFTISRDNAKNTVYLQMNSLKPEDTAVYYCNADPYYDYSLNWGDYWGQGTQVTVSS

>  <ENDPOINT_VALUE>
low polyreactivity

$$$$
>  <ORDERED_RESIDUES>
QVQHVESGGGLVQAGGSLRLSCAASGFIFSKYAMGWYRPAPGKERELVAAITRSGGRTYYADSVKGRFTISRDNAKNTVYLQMNSLKPEDTAVYYCAASWLYFGRDYWGQGTQVTVSS

>  <ENDPOINT_VALUE>
high polyreactivity

$$$$
>  <ORDERED_RESIDUES>
KVQLVESGGGLVQAGGSLRLSCAASGSIFGDNAMGWYRQAPGKERELVAAINYNGGRTYYADSVKGRFTISRDNAKNTVYLQMNSLKPEDTAVYYCAKDNYQAPVQQYPFDYWGQGSQVTVSS

>  <ENDPOINT_VALUE>
low polyreactivity

$$$$
>  <ORDERED_RESIDUES>
QVQLVESGGGLVQAGGSLRLSCAASGRIFPWYTMGWYRQAPGKERELVAVISSGGRTHYADSVKGRFTISRDNAKNTVYLQMNSLKPEDTAVYYCAAESRYQRYDYWGQGTQVTVSS

>  <ENDPOINT_VALUE>
high polyreactivity

$$$$
>  <ORDERED_RESIDUES>
QVQLVESGGGLVQAGGSLRLSCAASGFTFKYYAMGWYRPAPGKERELVAAIRRSAGSTNYADSVKGRFTISRDNAKNTVYLQMNSLKPEDTAVYYCNTVGTRQPMDYWGQGTQVTVSS

>  <ENDPOINT_VALUE>
high polyreactivity

$$$$
>  <ORDERED_RESIDUES>
QVQLVESGGGLVQAGGSLRLSSAASGSTIGVNARGWYRQAPGKERELVAAISSSGSSTYADSVKGRFTISRDNAKNTVYLQMNSLKPEDTAVYYCNKEWYPYKHNYWGQGTQVTVSS

>  <ENDPOINT_VALUE>
low polyreactivity

$$$$
